# System: HCT-116
# EXPERIMENTAL DETAILS: Cytotoxicity against human HCT116 cells assessed as growth inhibition after 72 hrs by MTT assay
# Type: functional
# MEASUREMENT PARAMETERS: HCT-116, 72 h
MEASURED QUANTITY: GI50 (µM)
The reply should contain only the number, in µM.

Example entries begin here.
CO[C@@H]1C[C@]2(C)[C@H]3CC=C4[C@H]5[C@](C(=O)O)(CC[C@@H](C)[C@@]5(C)O)CC[C@@]4(C)[C@]3(C)CC[C@H]2C(C)(C)CO1 : 37
CC(C)c1cc2c(cc1O)[C@]1(C)CCC[C@](C)(C(=O)O)[C@H]1CC2 : 68
CC1(C)CC[C@]2(C(=O)O)CC[C@]3(C)C(=CC[C@@H]4[C@@]5(C)C[C@@H](O)[C@H](O)[C@](C)(CO)[C@@H]5CC[C@]43C)[C@@H]2C1 : 29
C=C1C(=O)[C@]23C[C@H]1CC[C@H]2[C@]1(C)CC[C@@H](O)C(C)(C)[C@H]1C[C@@H]3O : 2.7
O=C(/C=C/c1ccc(O)cc1)c1ccc(O)cc1O [ISOLIQUIRITIGENIN] : 39
CC1(C)CC[C@]2(C(=O)O)CC[C@]3(C)C(=CC[C@@H]4[C@@]5(C)C[C@@H](O)[C@@H](O)C(C)(C)[C@@H]5CC[C@]43C)[C@@H]2C1 : 51
CC1(C)CC[C@]2(C(=O)O)CC[C@]3(C)C(=CC[C@@H]4[C@@]5(C)C[C@H](O)[C@H](O)[C@@](C)(COC(C)(C)O)[C@@H]5CC[C@]43C)[C@@H]2C1 : 55

Q: Query: GI50; subject: COc1cc(O)ccc1/C=C/C(=O)c1ccc(O)cc1 [ECHINATIN]
Result: 64
